target: T1, succinyl-L-alanyl-L-alanyl-L-prolyl-L-phenylalanyl-p-nitroanilide
T1 sequence (peptide, N-terminal succinyl; C-terminal p-nitroanilide): AAPF
Recorded Endpoint: kcat · Km^-1
Write the quantity with the unit trailing the number.

BLAP mutant F49 (S3T + V4I + A188P + V193M + V199I + L211D) (enzyme) AQTIPWGISRVQAPAAHNRGLTGSGVKVAVLDTGISTHPDLNIRGGASFVPGEPSTQDGNGHGTHVAGTIAALNNSIGVLGVAPSAELYAVKVLGADGRGAISSIAQGLEWAGNNGMHVANLSLGSPSPSATLEQAVNSATSRGVLVVAASGNSGASSISYPARYANAMAVGATDQNNNRASFSQYGPGLDIMAPGVNIQSTYPGSTYASDNGTSMATPHVAGAAALVKQKNPSWSNVQIRNHLKNTATSLGSTNLYGSGLVNAEAATR = 11000 M⁻¹ s⁻¹

# input for lookup
Asked: Need kcat · Km^-1, item BLAP mutant F45 (S3T + V4I + R99S + A188P + V193M + V199I) (enzyme) AQTIPWGISRVQAPAAHNRGLTGSGVKVAVLDTGISTHPDLNIRGGASFVPGEPSTQDGNGHGTHVAGTIAALNNSIGVLGVAPSAELYAVKVLGADGSGAISSIAQGLEWAGNNGMHVANLSLGSPSPSATLEQAVNSATSRGVLVVAASGNSGASSISYPARYANAMAVGATDQNNNRASFSQYGPGLDIMAPGVNIQSTYPGSTYASLNGTSMATPHVAGAAALVKQKNPSWSNVQIRNHLKNTATSLGSTNLYGSGLVNAEAATR
Given back: 68000 M⁻¹ s⁻¹

Source of measurements: patent US5801039
